Target: DLG1_3, Q12959
Sequence (Q12959 457-571): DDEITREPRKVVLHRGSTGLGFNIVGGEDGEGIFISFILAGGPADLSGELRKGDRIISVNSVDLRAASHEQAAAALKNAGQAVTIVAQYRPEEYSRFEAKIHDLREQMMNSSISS
Assay: holdup assay
Design: key: below the threshold = too weak to quantify, mostly under pKd 3.1 to 4
Settings: plain residues with an end cap or a label only (N-terminal biotin on a linker: ttds)
Classify by measured pKd: Yes if it is equal to or exceeds 4, No if it is smaller.

Please review the entries below; each comes with its answer.
{"BINDER": "KLVIKTETTV [RASSF6, Q6ZTQ3]", "LABEL CLASS": "Yes"}
{"BINDER": "PFRSRSPSEV [GPR6, P46095]", "LABEL CLASS": "No"}
{"BINDER": "NPDALPETLV [ARHGAP6, O43182]", "LABEL CLASS": "No"}

Kindly review the next binder as well.
Decide: is the reported value of pKd for SGGKRKETLV [NET1, Q7Z628] equal to or greater than 4?
Yes
